Listed binders paired with reported Fold Reduction in binding affinity compared to WT (Kd)
Target: T1, human CD7 (human, UniProt P09564 26-180, limits assumed)
T1 construct: The construct is not described
T1 sequence (looked up): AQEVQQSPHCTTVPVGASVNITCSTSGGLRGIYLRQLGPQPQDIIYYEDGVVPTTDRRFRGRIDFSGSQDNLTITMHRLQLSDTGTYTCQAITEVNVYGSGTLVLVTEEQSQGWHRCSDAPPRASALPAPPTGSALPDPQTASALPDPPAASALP
Assay: SPR; reference 7-AA-WT
Please reply with the bare figure in fold and do not write the unit itself.

Examples with answers:
* CD7-PP-13 CD7 binding arm (Fab, V domains shown, Heavy chain CDR3 Tyr108Ala; also called 7-PP-13 (mut_17-AA-1)) VH: QVQLQESGAELVKPGASVKLSCKASGYTFTSYWMHWVKQRPGQGLEWIGKINPSNGRTNYNEKFKSKATLTVDKSSSTAYMQLSSLTSEDSAVYYCARGGVYYDLYYAALDYWGQGTTVTVSS VL: DIELTQSPATLSVTPGDSVSLSCRASQSISNNLHWYQQKSHESPRLLIKSASQSISGIPSRFSGSGSGTDFTLSINSVETEDFGMYFCQQSNSWPYTFGGGTKLEIKR | 17
* CD7-PP-8 CD7 binding arm (Fab, V domains shown) VH: QVQLQESGAELVKPGASVKLSCKASGYTFTSYWMHWVKQRPGQGLEWIGKINPSNGKTNYNEKFKSKATLTVDKSSSTAYMQLSSLTSEDSAVYYCARGGVYYDLYYAALDYWGQGTTVTVSS VL: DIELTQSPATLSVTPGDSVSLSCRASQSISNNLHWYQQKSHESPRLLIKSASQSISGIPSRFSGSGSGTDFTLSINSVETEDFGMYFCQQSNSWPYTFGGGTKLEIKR | 87.2

# Fold Reduction in binding affinity compared to WT (Kd) of CD7-PP-2 CD7 binding arm (Fab, V domains shown, Heavy chain Arg57Gly) VH: QVQLQESGAELVKPGASVKLSCKASGYTFTSYWMHWVKQRPGQGLEWIGKINPSNGGTNYNEKFKSKATLTVDKSSSTAYMQLSSLTSEDSAVYYCARGGVYYDLYYYALDYWGQGTTVTVSS VL: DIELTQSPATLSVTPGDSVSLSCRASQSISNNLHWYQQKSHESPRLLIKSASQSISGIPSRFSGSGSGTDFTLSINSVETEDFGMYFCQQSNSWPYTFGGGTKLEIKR = 28.8
